B1: CPEB3 Ribozyme (parent)
chain: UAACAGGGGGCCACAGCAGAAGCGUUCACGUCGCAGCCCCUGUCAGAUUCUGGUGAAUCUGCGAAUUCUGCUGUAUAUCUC

# Variants of: B1
# ASSAY_METHOD_TEXT: self-cleavage, relative activity (ratio to wild type); higher = more cleavage; in vitro, sequencing
Assign class by self-cleavage: not lower than 0.3 means YES; lower than 0.3 means NO.

- UAACAGGGGGCCACAGCAGAAGGGCUCACGUCGCAGCCCCUGUCAGAUUCUGGUGAAUCUGCGAAUUCUGCUGUAUAUCUC [C23G U25C]: NO
- UAACAGGGGGCCACAGCAGUAGCGUUCACGUCGCAGCCCCUGUCAGAUUCUGGGGAAUCUGCGAAUUCUGCUGUAUAUCUC [A20U U54G]: NO
- UAACAGGGGGCCACAGCAGAAGCGUUCACGUCGCAGCCCCUGUCAGACUCUGGUGAAUCUGCGAAUUCUGCUGUAUAUCUU [U48C C81U]: YES
- UAACAGGGGGCCACAGCAGAAGCGUUCACGUCGCGGCCCCUGUCACAUUCUGGUGAAUCUGCGAAUUCUGCUGUAUAUCUC [A35G G46C]: YES
- UAACAGGGGGCCACAGCCGAAGCGUUCACGUCGCAGCCCCUGUCAGAUUCUGGUGAAUCUGCGAAUUCUGCUGGAUAUCUC [A18C U74G]: YES
- UAACAGGGGGCCACAGCAGAAGCGUUCACGUCGCAGCCCCUGUCAGAUCCUGGUGAAUCUGCGAAUUUUGCUGUAUAUCUC [U49C C68U]: NO
- UAACAGGGCGCCACAGCAGAAGCGUUCACGUCGCAGCCCCUGUCAGAUUCAGGUGAAUCUGCGAAUUCUGCUGUAUAUCUC [G9C U51A]: NO
- UAACAGGGGGCCACAGCAGGAGCGUUCACGUCGCAGCCCCUGUCAGAUUCUGGUGAAUCUGCGCAUUCUGCUGUAUAUCUC [A20G A64C]: YES
- UAACAGGGGCCUACAGCAGAAGCGUUCACGUCGCAGCCCCUGUCAGAUUCUGGUGAAUCUGCGAAUUCUGCUGUAUAUCUC [G10C C12U]: NO
- UAACAGGGGGCCACAGCAGAAGCGUUCACGUCGCUGCCCCUGUCAGAUUCUGGUGAAGCUGCGAAUUCUGCUGUAUAUCUC [A35U U58G]: NO
- UAACAGGGGACCACAGCAGAAGCGUUCACGUCGCAGCCCCUGUUAGAUUCUGGUGAAUCUGCGAAUUCUGCUGUAUAUCUC [G10A C44U]: NO
- UAACAGGGGGCCACAGCAGAAGCGUUAACGUCGCAGCCCCUGUCAGAUUCUGGUGAAUCUGCGAAUUCUGCUGUAUAUCAC [C27A U80A]: NO
- UAACAGGGGGCCACAGCAGAAGCGUUCACGUCGCAGCCCCUGUCAGAUUCUGGUAAAUCUGCGAACUCUGCUGUAUAUCUC [G55A U66C]: NO
- UAACAGGGGGCCACAGCAGAUGCGUUCACGUCGCAGCCCCUGUCAGAUUCUGGUGAAUCUGCGAAUUCUGCUGUAUAUCUA [A21U C81A]: YES
- AAACAGGGGGCCACAGCAGAAGCGUUCACGACGCAGCCCCUGUCAGAUUCUGGUGAAUCUGCGAAUUCUGCUGUAUAUCUC [U1A U31A]: YES
- UAACAGGGGGCCACAGCAGAAGCGUUCACGUCGCUGUCCCUGUCAGAUUCUGGUGAAUCUGCGAAUUCUGCUGUAUAUCUC [A35U C37U]: NO
- UAACAGGGGGCCACAGCAGAAGCGUUCACGUCGCAGCCCCUGUCAGAUUCUGGUGAAUCUAUGAAUUCUGCUGUAUAUCUC [G61A C62U]: NO
